Origin of the recorded values: patent US9833497B2

Collected MIC against P. aeruginosa values appear next to each entry.
- System: Pseudomonas aeruginosa
- measurement_protocol: MIC against Gram-negative bacteria: Pseudomonas aeruginosa
- Assay type: cell-based
- condition_notes: Pseudomonas aeruginosa; 96-well plate, 5×10^5 CFU/mL, 37° C., 10 h
- Method: 1. Gram-negative bacteria, such as E. coli BL21, Pseudomonas aeruginosa, Klebsiella pneumonia, Enterobacter cloacae, Aeromonas hydrophila, Citrobacter diversus, Moraxella catarrhalis, Proteus mirabilis, Proteus vulgaris, Serratia marcescens, etc were streaked on solid LB medium and cultured respectively. Then, typical clones were picked, inoculated into common liquid LB medium respectively, and cultured at 37° C. with shaking at 185 rpm until the McFarland specific turbidity was 0.5. […]
Give your result in µg/mL as a bare value.

Reference set (5 entries):
>>> recorded_measurement("PRT1302 (QTSPCDQYECQNGAQCIVVQQEPTCRCPPGFAGPRCE; listed as Homo sapiens)")
12.5
>>> recorded_measurement("PRT1303 (HGLCRSVEKDSVVCECRPGWTGPLCD; listed as Homo sapiens)")
12.5
>>> recorded_measurement("PRT1231 (IGPSCLKFCSGRGQCTRHGCKCDPGFSGPACE; listed as Homo sapiens)")
50
>>> recorded_measurement("PRT1224 (PPGDCASHPCQNGGSCEPGLHSGFTCSCPDSHTGRTCE; listed as Homo sapiens)")
25
>>> recorded_measurement("PRT1329 (LPAVCTPPCSAHATCKENNTCECNLDYEGDGITCT; listed as Homo sapiens)")
12.5

Then this substance:
IN: Under Pseudomonas aeruginosa, report MIC against P. aeruginosa for PRT1239 (TIPICEGPDACQKDEVCVKPGLCRCKPGFFGAHCS; listed as Homo sapiens)
OUT: 50

* * *

- Tested on: Moraxella catarrhalis
- measurement_protocol: MIC against Gram-negative bacteria: Moraxella catarrhalis
- Type: cell-based
- condition_notes: M. catarrhalis; 10 h cultivation at 37° C.
Collected MIC values appear next to each entry.
State the value with its unit after it.

>>> recorded_measurement("PRT995 (ETNECASAPCLNHADCHDLLNGFQCICLPGFSGTRCE; listed as Homo sapiens)")
"12.5 µg/mL"
>>> recorded_measurement("PRT1001 (EMTACHSGPCLNGGSCNPSPGGYYCTCPPSHTGPQCQ; listed as Homo sapiens)")
"25 µg/mL"

IN: Please look at this substance and report its MIC: PRT924 (DVDECAMANSNPCEHAGKCVNTDGAFHCECLKGYAGPRCE; listed as Homo sapiens)
OUT: 50 µg/mL

IN: Please look at this substance and report its MIC: PRT971 (DINDCDPNPCLNGGSCQDGVGSFSCSCLPGFAGPRCA; listed as Homo sapiens)
OUT: 25 µg/mL

IN: Please look at this substance and report its MIC: PRT1029 (PANPCEDGSHTCAPAGQARCVHHGGSTFSCACLPGYAGDGHQCT; listed as Homo sapiens)
OUT: 12.5 µg/mL

IN: Please look at this substance and report its MIC: PRT984 (SNASCAAAPCLHGGSCRPAPLAPFFRCACAQGWTGPRCE; listed as Homo sapiens)
OUT: 12.5 µg/mL

IN: Please look at this substance and report its MIC: PRT1033 (LYVPCAPSPCVNGGTCRQTGDFTFECNCLPETVRRGTE; listed as Homo sapiens)
OUT: 100 µg/mL

IN: Please look at this substance and report its MIC: PRT982 (VLSPCESQPCQHGGQCRPSPGPGGGLTFTCHCAQPFWGPRCE; listed as Homo sapiens)
OUT: 12.5 µg/mL

* * *

- Tested on: Citrobacter diversus
- measurement_protocol: MIC against Gram-negative bacteria: Citrobacter diversus
- Assay type: cell-based
- condition_notes: 96-well plate, 5×10^5 CFU/mL, 37° C., 10 h
assay_readout: MIC against C. diversus (µg/mL)
Give your result in µg/mL as a bare value.

Reference set (3 entries):
>>> recorded_measurement("PRT488 (DRCQLQTRCQNGGQWDGLKCQCPSTFYGSSCE; listed as Homo sapiens)")
50
>>> recorded_measurement("PRT528 (CSCNSNGQLGSCHPLTGDCINQEPKDSSPAEECDD; listed as Homo sapiens)")
50
>>> recorded_measurement("PRT519 (CQCNDNLDFSIPGSCDSLSGSCLICKPGTTGRYCELCADGYFGDAVDAKNCQP; listed as Homo sapiens)")
12.5

IN: Please look at this substance and report its MIC against C. diversus: PRT557 (CGCSPAGTLPEGCDEAGRCLCQPEFAGPHCDRCRPGYHGFPNCQA; listed as Homo sapiens)
OUT: 12.5

IN: Please look at this substance and report its MIC against C. diversus: PRT452 (DIDECTEMPFVCSQKCENVIGSYICKCAPGYLREPDGKTC; listed as Homo sapiens)
OUT: 50

IN: Please look at this substance and report its MIC against C. diversus: PRT462 (DVDECLEGLDDCHYNQLCENTPGGHRCSCPRGYRMQGPS; listed as Homo sapiens)
OUT: 12.5

IN: Please look at this substance and report its MIC against C. diversus: PRT502 (CECHGHAAECNVHGVCIACAHNTTGVHCEQCLPGFYGEPSRGTPGDCQP; listed as Homo sapiens)
OUT: 12.5

IN: Please look at this substance and report its MIC against C. diversus: PRT459 (RTAKCEPACRHGGVCVRPNKCLCKKGYLGPQCE; listed as Homo sapiens)
OUT: 25

IN: Please look at this substance and report its MIC against C. diversus: PRT467 (ECPGGCRNGGFCNERRICECPDGFHGPHCE; listed as Homo sapiens)
OUT: 50

* * *

Collected MIC against E. coli BL21 values appear next to each entry.
- Tested on: E. coli BL21
- measurement_protocol: MIC against Gram-negative bacteria: E. coli BL21
- Assay type: cell-based
- condition_notes: E. coli BL21; 5×10^5 CFU/mL; 10 h cultivation at 37° C.
State the value with its unit after it.

Reference set (3 entries):
>>> recorded_measurement("PRT1362 (GKPTCPHACHTQGRCEEGQCVCDEGFAGVDCS; listed as Homo sapiens)")
"25 µg/mL"
>>> recorded_measurement("PRT1461 (CNCNTSGTVDGDITCHQNSGQCKCKANVIGLRCDHCNFGFKFLRSFNDVGCEP; listed as Homo sapiens)")
"12.5 µg/mL"
>>> recorded_measurement("PRT1408 (NEICSVDCGSHGVCMGGTCRCEEGWTGPACNQ; listed as Homo sapiens)")
"12.5 µg/mL"

IN: Please look at this substance and report its MIC against E. coli BL21: PRT1355 (AELSCPNDCHGQGRCVNGQCVCHEGFMGKDCK; listed as Homo sapiens)
OUT: 25 µg/mL

* * *

- Tested on: E. coli BL21
- measurement_protocol: MIC against Gram-negative bacteria: E. coli BL21
- Assay type: cell-based
- condition_notes: E. coli BL21; 10 h cultivation at 37° C.; 5×10^5 CFU/mL
Collected MIC (μg/mL) E. coli BL21 values appear next to each entry.
Give your result in µg/mL as a bare value.

>>> recorded_measurement("PRT834 (DCADSPCCQQVCTNNPGGYECGCYAGYRLSADGCGCE; listed as Homo sapiens)")
25
>>> recorded_measurement("PRT263 (CSKNNGGCSPYATCKSTGDGQRTCTCDTAHTVGDGLTC; listed as Homo sapiens)")
25
>>> recorded_measurement("PRT159 (EYDACQRKPCQNNASCIDANEKQDGSNFTCVCLPGYTGELCQ; listed as Homo sapiens)")
50
>>> recorded_measurement("PRT805 (FGQNCSQDCPCHHGGQCDHVTGQCHCTAGYMGDRCQ; listed as Homo sapiens)")
50
>>> recorded_measurement("PRT816 (WGPDCSHPCNCSAGHGSCDAISGLCLCEAGYVGPRCE; listed as Homo sapiens)")
50
>>> recorded_measurement("PRT185 (ELSECDSNPCRNGGSCKDQEDGYHCLCPPGYYGLHCE; listed as Homo sapiens)")
25

Then this substance:
IN: Under E. coli BL21, report MIC (μg/mL) E. coli BL21 for PRT775 (SSLKCPDACNAQHKQCLIKKSGGAPECACVPGYQEDANGNCQ; listed as Homo sapiens)
OUT: 25

* * *

- Test system: E. coli DH5α
- measurement_protocol: Antibacterial activity: MIC and growth curve against E. coli DH5α in 96-well plate
- Type: cell-based
- condition_notes: minimal inhibitory concentration against E. coli DH5α; 96-well plate, 5×10^5 CFU/mL, 37° C., judged after 8 h
assay_readout: MIC (µg/mL)
Give your result in µg/mL as a bare value.

>>> recorded_measurement("PRT1284 (LVDLCSPDLNPCQHEAQCVGTPDGPRCECMPGYAGDNCS; listed as Homo sapiens)")
25
>>> recorded_measurement("PRT1080 (IQSYCAKHLKCSQKCDQNKFSVKCSCYEGWVLEPDGESCR; listed as Homo sapiens)")
50
>>> recorded_measurement("PRT467 (ECPGGCRNGGFCNERRICECPDGFHGPHCE; listed as Homo sapiens)")
12.5

IN: Please look at this substance and report its MIC: PRT1071 (ELDQCWEHCRNGGTCAASPSGMPTCRCPTGFTGPKCT; listed as Homo sapiens)
OUT: 50
